Test system: K4 kissing-loop RNA reporter;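 note: bound reporter read as fluorescence of individual clusters on recovered sequencing chips by microscopy, with normalized cluster intensities fitted with a binding model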
Test: apparent KD of K4 kissing-loop reporter; higher = weaker reporter binding
Conditions: Eterna round: R107; input ligand: FMN 200 uM
The entries below come with measured apparent KD of K4 kissing-loop reporter values attached.
Reply numerically in nM, unit not repeated.

CGUGGUGCUCGCCAGCUGUGCGAGCGGUGGGAGGAUAUGUCGCGAGACAGAAGGCCCAGUGAUGUUGGGCAGGCUCGUAGAUCAA [Orbemaed]
152

Q: For the sequence AAGGGCUAGGCGGCCGCCACUGGUCGUGUACACAUACGAACCAGUGAUGUUGGUAUUGUAUGCGACAGGACCGGGCCUAGCCGAA [Exclusion - Tryptophan B (Freestyle 27)] , report apparent KD of K4 kissing-loop reporter.
A: 313

Q: For the sequence AAGUGUCAUUAGACACAGACUACAAUAAACUAGGAUAUGCUGAUAAGCAGAAGGAGUGAUGUUCCUUUCAAGUAGUCAAUUAAAU [FmnAX 20 Mat Inspired #SwitchBubble #StaticStem #K4Late] , report apparent KD of K4 kissing-loop reporter.
A: 243

Q: For the sequence GGACCACCAGUGAUGUUGGAGAUAAACUCCAAGGAUAUGACGAAAGUCAGAAGGUGGUAAUAAGACGUCAAAGACGUCAGGUCCA [FmnA 20 #SwitchBubble #K4Early] , report apparent KD of K4 kissing-loop reporter.
A: 372

Q: For the sequence GCGCGUCAUGUCAGCGGUGACACUGUCGAUACCAGCGCCGGAAGGCGCCCUUGGCAGCGACGUGCUGGAGUGAUGUUCCAGCGUG [#2 Exclusion - Theophylline A Attempt #26 (HarryS)] , report apparent KD of K4 kissing-loop reporter.
A: 197

---

Tested on: MS2 coat protein
Assay: apparent KD of MS2 coat protein; higher = weaker reporter binding
Conditions: Eterna round: R107; input ligand: tryptophan 2.4 mM
Entries are sorted into classes by apparent KD of MS2 coat protein as follows: bin 1 = under 20 nM, bin 2 = from 20 nM up to 70 nM, bin 3 = 70 nM and over

Below are worked cases with known answers.
AAUAAGAUGAGGAUCACCCAUCUAAAAGAUACCAGAGUGAUGAUCCUCCCUUGGCAGCUUAACGCUGAUUGAUUACAAUCAGCGA
bin 2
GCGAUGGAGCGAAGGAGCGGCUAUCACCGACAAAACAUGAGGAUCACCCAUGUUGGCAGUGGCCAGGUAGGUCGCGCUCCAUCGC [EAB NP+V+V2 #8]
bin 1
ACAUGAGGAUCACCCAUGUGCCGUCUUGAUACCAGACGCGAAGUAGUCCCUUGGCAGCAAAUACGUGAGGGUCGCGCAUGUGUAA [wzxmullin]
bin 2
UAUACAUGAGGAUCACCCAUGUGCCAUGAUACCAGACAUGAAAAUGUCCCUUGGCAGCAUGGUGAUUGUAUAGCGGGAAACCCGA [Utechov]
bin 3
AUAACAUGAGGAUCACCCAUGUUGAGUGAUACCAGACCAUGUAGUGUCCCUUGGCAGCACAGGUAAAGUUGUAAAUAACGAUAGA [#13 SameState-TheophyllineA]
bin 2
UCACAUGAGGAUCACCCAUGUACAGGCGAUACCAGCCGUACAUUGGGCCCUUGGCAGCGCACCGAGACCUUUAUAAGCACCUCGG [Zaoranorre]
bin 1
GGACUAACCAGAAGGAGCGGCACAAAGCAGAAACUGCAUCCUCCGCACGAGGAUCACCCGUGUCAGGUAGGUCGCUGGUUAGUCG [ArgBX 28]
bin 2
UAUCCACAUGAGGAUCACCCAUGUAAGGAAGGAGCGGUGAAUGAACCAGGUAGGUCGCCUUGGUGAGGAUCAUCUAUGGAUUCGU [Exclusion - Arginine A (Freestyle 10)]
bin 2

Q: Kindly identify the class of GGGAUAUCCCGAAGGAGCGCGAGAUGCUGUGCUGCAUUCCUCACAUGAGGAUCACCCAUGUCGCAGGUAGGUCGCGGGAUAUCCC [#16 Exclusion - Arginine B] .
A: bin 3

Q: Kindly identify the class of GCUUGGGUGGCCCAGCCCUGGCAGGGCGAUACCAGCACGGUAACGUGCCCUUGGCAGCGCACAUGAGGAUCACCCAUGUGGUGCG [#1 Exclusion - Theophylline A Attempt #27 (HarryS)] .
A: bin 3
